Test system: AURKA
conditionSet: concentration: 1 μM, replicates: in singlicate; n = 1;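 note: KINOMEscan kinase panel screen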
outcomeMeasure: %Inh

CNc1nccc(-c2c(-c3ccc(F)cc3)ncn2CCCN2CCOCC2)n1; 0%
Cc1cc(N2CCC(NS(=O)(=O)c3ccc(F)cc3)CC2)nc(Nc2cccc(C#N)c2)n1.O=C(O)C(F)(F)F; 0%
CN1CCC(n2cnc(-c3ccc(F)cc3)c2-c2ccnc(NC3CCNCC3)n2)CC1; 34%
Oc1ccc2ncnc(Nc3ccc(OCc4ccccc4)cc3)c2c1; 0%
Cc1cccc(-c2nc(Nc3ccc4[nH]nnc4c3)c3ccccc3n2)n1; 0%
Cn1cc(-c2ccc3c(c2)CCN3C(=O)Cc2cccc(C(F)(F)F)c2)c2c(N)ncnc21; 30%
O=C(Nc1ccccc1F)NC1CCN(c2ccnc(Nc3ccc(F)cc3)n2)C1 (stereo not drawn); 0%
COc1cc2ncnc(Nc3ccc(OCc4ccccc4Br)c(Cl)c3)c2cc1OC.Cl; 1%
CN1c2ccc(-c3ccc(C(=O)NCCO)cc3)cc2-c2[nH]ncc2S1(=O)=O; 0%

---

Tested on: FGR
conditionSet: concentration: 1 μM, replicates: in singlicate; n = 1
// %Inh lookup, one value per entry
outcomeMeasure: %Inh (%)

C[C@H]1CC[C@@H](C(=O)Nc2ccccc2)CN1c1cc(-c2ccc3c(N)n[nH]c3c2)nc(N)n1; 27
COc1cc2c(Nc3cccc(NC(=O)c4ccccc4)c3)ncnc2cc1OCCCN1CCOCC1; 0
Clc1ccc(-c2cc(-c3c[nH]nc3-c3ccccn3)ccn2)cc1; 11
Fc1cccc(COc2ccc(Nc3ncnc4nn5ccccc5c34)cc2Cl)c1; 4

---

Test system: GRK7
conditionSet: concentration: 1 μM, replicates: in singlicate; n = 1
// %Inh lookup, one value per entry
outcomeMeasure: %Inh

Cl.Fc1ccccc1COc1ccc(Nc2ncnc3ccc(-c4nnc(C(F)(F)F)o4)cc23)cc1Cl [GW424170]; 0%
CC(C)(C)c1ccc(-n2cnc3c(N)ncnc32)cc1 [SKF-97263]; 0%
CN1c2ccc(-c3ccc(C(=O)NCCO)cc3)cc2-c2[nH]ncc2S1(=O)=O; 22%
O=C(CCO)NCCn1ccc2ncnc(Nc3ccc(Oc4cccc(C(F)(F)F)c4)c(Cl)c3)c21; 0%
CN1CCC(n2cnc(-c3ccc(F)cc3)c2-c2ccnc(NC3CCNCC3)n2)CC1 [SB-229482]; 29%

---

// %Inh lookup, one value per entry
Test system: PIP5K2B
conditionSet: concentration: 1 μM, replicates: in singlicate; n = 1
outcomeMeasure: %Inh

C[C@H]1CC[C@@H](C(=O)Nc2ccccc2)CN1c1cc(-c2ccc3c(N)n[nH]c3c2)nc(N)n1 [GSK2283293]; 24%
COc1ccc(NC(=O)c2ccc(-c3cc(-c4nnc(C)o4)ccc3C)cc2)cc1 [GW595885]; 10%
O=C(Nc1n[nH]c2nc(-c3ccco3)c(Br)cc12)c1ccc(CN2CCCC2)cc1.O=C(O)[C@H](O)[C@@H](O)C(=O)O [SB-742352]; 0%
O=C(c1ccc(-c2cc(-c3c[nH]nc3-c3ccccn3)ccn2)cc1)N1CCCC1 [GW792479]; 0%
OCCOCCn1ccc2ncnc(Nc3ccc(Oc4cccc(Cl)c4)c(Cl)c3)c21; 0%
Cc1ccc(C)c(NC(=O)NCCNc2ccnc(Nc3ccc(F)cc3)n2)c1 [GSK1379878]; 15%
c1ccc(-c2ccc3c(-c4ccnc(Nc5ccc6c(c5)OCCO6)n4)cnn3n2)cc1 [GW818941]; 1%
N#Cc1ccc(Oc2ccc(Nc3ncnc4cc[nH]c34)cc2Cl)cc1; 11%
